TARGET OR SYSTEM: ghrelin receptor overexpressed on HEK293 cells (UniProt Q92847 1-366, limits assumed)
Sequence (Q92847 whole entry): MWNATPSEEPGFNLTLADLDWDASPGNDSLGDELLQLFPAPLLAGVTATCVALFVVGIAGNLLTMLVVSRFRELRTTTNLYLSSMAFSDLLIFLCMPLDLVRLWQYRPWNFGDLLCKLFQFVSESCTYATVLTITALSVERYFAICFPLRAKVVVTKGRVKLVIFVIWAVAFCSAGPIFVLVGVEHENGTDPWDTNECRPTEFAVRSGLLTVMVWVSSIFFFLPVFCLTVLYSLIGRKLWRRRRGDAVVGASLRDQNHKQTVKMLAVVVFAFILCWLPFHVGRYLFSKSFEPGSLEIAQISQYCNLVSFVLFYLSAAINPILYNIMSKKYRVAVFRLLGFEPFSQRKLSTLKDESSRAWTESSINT
ASSAY NAME: cell-based or functional assay
Positions of bridges follow the written chain, without caps; N, C: chain ends. Non-standard residues stand in square brackets, D forms with d. Lys(N3) = [N-]=[N+]=NCCCC[C@H](N)C(=O)O; Pra = C#CC[C@H](N)C(=O)O
EC50 (M) of the MK0677 agonist, IP-One Gq assay, peptidomimetic at 10 µM, n = 1 reference
MEASURE NAME: EC50 (M) of the MK0677 agonist, IP-One Gq assay, peptidomimetic at 10 µM, n = 1

BINDER: H-KKKFA[Pra]VKD[Lys(N3)]ILQLNLKEYNLV-OH (triazole 6-10) [SBL-GQ-13]
REPORTED MEASUREMENT: 4.42e-10 M

BINDER: H-RRRRRRRRFA[Pra]VKD[Lys(N3)]ILQLNLKEYNLV-OH (triazole 11-15) [SBL-GQ-15]
REPORTED MEASUREMENT: 2.75e-10 M

BINDER: H-RRRRFA[Pra]VKD[Lys(N3)]ILQLNLKEYNLV-OH (triazole 7-11) [SBL-GQ-14]
REPORTED MEASUREMENT: 6.96e-10 M

BINDER: Ac-KKKFA[Pra]VKD[Lys(N3)]ILQLNLKEYNLV-OH (triazole 6-10) [SBL-GQ-05]
REPORTED MEASUREMENT: 9.99e-10 M

Recorded values, source patent US20260242759A1.
